Please go through the items and note down their %Inh.
System: MELK;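 further: KINOMEscan kinase panel screen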
Measurement parameters: concentration: 1 μM, replicates: in singlicate; n = 1
Number in %, nothing else.

# %Inh lookup, item CN1C(=O)C(Nc2ccccc2)=C(c2ccccc2)C1=O [SB-300079]
0

Item under review: O=C(NCc1cccs1)c1cc(C(=O)c2c(Cl)cccc2Cl)c[nH]1 [GW823670] . Reported %Inh?
26

Suppose we examine the molecule Nc1ncnc2c1ncn2-c1cccc(F)c1 [SKF-97560] ; what %Inh value has been reported?
22

What value of %Inh has been reported for the following molecule? O=c1cc(N2CCOCC2)nc2n(Cc3ccc(F)c(Cl)c3)ccn12 [GSK2297099]
0

If you can, please state the reported %Inh value of COc1cc(Nc2nccc(N3CCC(NC(=O)C(C)c4ccc(Cl)cc4)C3)n2)cc(OC)c1OC (centres unmarked) [GSK1379757] .
6

These entries and their values trace back to paper PMC5540273.
